Test system: Leukemia L1210
Assay: Activity against Leukemia L1210, intraperitoneal, increase in life span of mice
Format: in vivo, female mice (BDF1 family)
Conditions: ip; O.D./ILS30
Below: a set of entries, each annotated with reported Therapeutic ratio TR.

Examples from the recorded data:
CC(C)CO[C@@H]1O[C@H](CN(CCC(C)(C)C)C(=O)N(CCCl)N=O)[C@@H](O)[C@H](O)[C@H]1O [Compound 189] = 48.4
COC(C)CO[C@H]1O[C@H](CN(CC2CC2)C(=O)N(CCCl)N=O)[C@H](O)[C@H](O)[C@H]1O (stereo partly shown) [Compound 116] = 59.8
CCCCO[C@H]1O[C@H](CO)[C@@H](O)[C@H](O)[C@H]1N(CCOCCO)C(=O)N(CCCl)N=O [Compound 58] = 45.2
CCCCCCO[C@H]1O[C@H](CN(C(=O)N(CCCl)N=O)C(C)COC)[C@@H](O)[C@H](O)[C@H]1O (stereo partly shown) [Compound 27] = 36.4
COCCCN(C(=O)N(CCCl)N=O)[C@H]1CO[C@@H](OCC(C)C)[C@H](O)[C@H]1O [Compound 154] = 56.1
COC(C)CN(C(=O)N(CCCl)N=O)[C@@H]1[C@@H](OCC(C)C)OC[C@@H](O)[C@H]1O (stereo partly shown) [Compound 159] = 61.3

Give recorded Therapeutic ratio TR with Leukemia L1210 for the following molecule: CCCN(C[C@H]1O[C@H](OC2CCCCC2)[C@H](O)[C@@H](O)[C@H]1O)C(=O)N(CCCl)N=O [Compound 98] 31.0

Where do these numbers come from? They come from patent US4593090A.
